# Tested on: LOX IMVI
# procedure_text: NCI tumour cell line growth inhibition, 48 h
Calls of active or inactive are those of the source. Cut-off read from the data, not from the text of the source: active = GI50 up to about 1.1 µM and inactive = higher.
Possible outcomes: active, inactive

• ClCCN(CCCl)c1ccc(CNCCCNCc2ccc(N(CCCl)CCCl)cc2)cc1 = inactive
• O=C(O)c1cc2ccccc2c2c1C(=O)c1ccccc1-2 = inactive
• CC1(C)N(OC2CCCCO2)C(c2ccccc2)C(c2ccccc2)=[N+]1[O-] (configuration not stated) = inactive
• COc1ccc2c(-c3csc(-c4c[nH]c5ccccc45)n3)c[nH]c2c1 = inactive
• CCCCCCCCCCCCCCCC(=O)OCC(C[As](=O)(O)O)OC(=O)CCCCCCCCCCCCCCC (configuration not stated) = inactive
• COc1ccc(CNc2cc(=O)n(C)c(=O)[nH]2)cc1 = inactive
• CC(C)(C)N/N=C(\C(=O)Nc1nnc(S)[nH]1)C1C(=O)Nc2ccccc2[S+]1[O-] (configuration not stated) = inactive
• Cc1cccc(C(C)(C)C)c1NC(=O)CC1C(=O)Nc2ccccc2S1(=O)=O (configuration not stated) = inactive
• C=C[C@]1(O[Si](C)(C)C)C[C@@]2(C(=O)OCC)C(O)C(=O)N3CCc4cc(OC)c(OC)cc4[C@]312 (some centres not stated) = inactive
• COc1ccc(C2C(Cl)C(=O)N2n2cnc3ccccc3c2=O)cc1 (configuration not stated) = inactive
• COc1ccc(C2C3CCc4ccccc4C3=NN2S(=O)(=O)c2ccc(/C=C/C(=O)O)cc2)cc1 (configuration not stated) = inactive
• CSc1cc(Cl)c(C)cc1S(=O)(=O)NC(=O)NNc1cccc(C(F)(F)F)n1 = inactive
• Cc1cnc(-c2ccccc2)o1 = inactive
• CO[C@]12C[C@H](CNC(=O)c3cc(Br)c(Br)[nH]3)O[C@H]1NC(=O)N2 = inactive
• [O-][Cl+3]([O-])([O-])[O-].[O-][Cl+3]([O-])([O-])[O-].c1ccn2c(N3CCOCC3)[n+]3c4ccccc4[n+]4c(N5CCOCC5)n5ccccc5c4c3c2c1 = inactive
• Cc1nc(N)nc(N)c1-c1ccc(Cl)c(Cl)c1 = active
• Nc1ccc(S(=O)(=O)Nc2nc3ccccc3nc2N2CCCCC2)cc1 = inactive
• COc1cc2nc(-c3ccccc3F)nc(O)c2cc1OC = inactive
• Cc1ccc(S(=O)(=O)N/N=C2/CC[C@H](C(C)(C)C)C[C@@H]2C)cc1 = inactive
• COc1ccc([C@H](NC(=O)c2ccccc2)[C@@H](O)C(=O)O[C@H]2C[C@@]3(O)C(OC(=O)c4ccccc4)C4[C@](C)(C(=O)[C@H](OC(C)=O)C(=C2C)C3(C)C)[C@@H](O)C[C@H]2OC[C@@]42OC(C)=O)cc1 (some centres not stated) = active
• Nc1ncnc2c1ncn2CCCCC(=O)O = inactive
• O=C(O)CSCC(=O)c1ccccc1 = inactive

###

# System: XF498
# procedure_text: NCI tumour cell line growth inhibition, 48 h
Activity calls are given as the source filed them. No stated cut-off is given here; in the data, active = GI50 up to about 1.1 µM and inactive = higher.
assay_endpoint: GI50

* CCOc1ccccc1NC(=O)CC1C(=O)Nc2ccccc2[S+]1[O-] (stereo not drawn) | 44.8 µM (inactive)
* COC(=O)[C@]12CC=C3O[C@@H]4OC5(CCCCC5)O[C@@H]4C3[C@@H]1C(=O)CCC2=O (stereo partly drawn) | > 100 µM (inactive)
* Cc1cccc(C(C)(C)C)c1NC(=O)CC1C(=O)Nc2ccccc2S1(=O)=O (stereo not drawn) | 11.1 µM (inactive)
* N#Cc1cccc(C2SCc3nc4ccccc4n32)c1 (stereo not drawn) | 33.6 µM (inactive)
* CC(=O)c1c(C)[n+]([O-])c2cc(C)c(C)cc2[n+]1[O-] | > 100 µM (inactive)
* COc1cc([C@@H]2c3cc4c(cc3[C@@H](OC3OC5COC(C)OC5C(O)C3O)[C@H]3COC(=O)[C@H]23)OCO4)cc(OC)c1O (stereo partly drawn) | 8.41 µM (inactive)
* C=C(CO)CC(O)c1ccccc1 (stereo not drawn) | > 100 µM (inactive)
* CN(C)C(=S)/N=c1\sn(C)/c(=N\C(=S)N(C)C)n1C | > 100 µM (inactive)
* Cc1c(Cl)ccc2c1NC(=O)C2(O)CC(=O)c1ccc(Cl)cc1Cl (stereo not drawn) | 16.7 µM (inactive)
* CCCCCCCCCCCC[N+]12CC[N+](C)(CC1)CC2 | 20.7 µM (inactive)
* O=C(NC(=O)c1cc2cc(Br)cc(Br)c2oc1=O)Oc1ccccc1 | 37.4 µM (inactive)
* COC(=O)C(=O)C(/C(=N/N)C(=O)Nc1ccccc1C(N)=O)c1nc2ccc([N+](=O)[O-])cc2nc1O (stereo not drawn) | > 100 µM (inactive)
* O=C1C2CN(Cc3ccccc3)CC1CN(CC1CC1)C2 | > 100 µM (inactive)
* CN(C)CCNC(=O)c1cccc2[nH]c(-c3ccccn3)nc12 | 36.6 µM (inactive)
* COC(=O)C(C(=O)C(=O)Nc1ccc(N)cc1[N+](=O)[O-])c1nc2ccc(Cl)cc2nc1O (stereo not drawn) | 70.8 µM (inactive)
* CCC1C(=O)OCc2c1cc1n(c2=O)Cc2ccccc2-1 (stereo not drawn) | > 100 µM (inactive)
* O=C1OC2(OC2c2ccccc2)c2ccccc21 (stereo not drawn) | > 100 µM (inactive)
* Cc1cc(/N=C2\C=C(Nc3cc(C)on3)C(=O)c3ccccc32)no1 | 35.6 µM (inactive)
* C[C@]12CCc3nonc3C1CC[C@@H]1C2CC[C@]2(C)NC(=O)CCC12 (stereo partly drawn) | > 100 µM (inactive)
* COC(=O)c1ccc(OCc2ccc3nc(OC)c(OC)nc3c2)cc1 | > 100 µM (inactive)
* COc1ccc(OC)c(CCc2cc(OC)c(OC)cc2C)c1 | 77.6 µM (inactive)
* CN(CCO)/N=N/c1n[nH]cc1C(N)=O | > 100 µM (inactive)
* CC(/C=C/C(=O)c1sc(-n2nc(-c3ccccc3)cc2-c2ccccc2)nc1C)=C\c1ccccc1 | > 10 µM (inactive)
